Cited source for all entries: PubChem BioAssay (NCI)

TGI reference
System: RXF 393 renal
MEASUREMENT_DESCRIPTION: NCI tumour cell line growth inhibition, 48 h

{"COMPOUND": "C[C@H]1[C@H](C)CC[C@]2(C(=O)OC3OC(CO)C(O)C(O)C3O)CC[C@]3(C)C(=CC[C@@H]4[C@@]5(C)C[C@@H](O)[C@@H]6OC(=O)c7cc(O)c(O)c(O)c7-c7c(cc(O)c(O)c7O)C(=O)OC[C@@]6(CO)[C@@H]5CC[C@]43C)[C@H]12 (some centres undefined)", "TGI": "> 100 µM"}
{"COMPOUND": "CCOC(=O)c1c(-c2ccccc2)c(OC)cn1C", "TGI": "> 10 µM"}
{"COMPOUND": "C/C=C(\\C)C(=O)OC1/C=C(\\C)CC/C=C(\\C)CC2OC(=O)C(C)(OC(C)=O)C12 (centres undefined)", "TGI": "> 100 µM"}
{"COMPOUND": "COc1ccc(S(=O)(=O)N(C(C)=O)c2ccccc2/C=C/c2cc[n+]([O-])cc2)cc1", "TGI": "> 6.85 µM"}
{"COMPOUND": "CC1(C)CCC[C@]2(C)c3ccccc3C(=O)CC12 (some centres undefined)", "TGI": "> 100 µM"}
{"COMPOUND": "C=C1[C@@H]2CCC3[C@]4(C)C(CC[C@@]5(C)C(=O)O[C@H](O)[C@@H]45)[C@H](O)[C@]3(C2)[C@H]1OC1OC(CO)C(O)C(O)C1O (some centres undefined)", "TGI": "> 50 µM"}
{"COMPOUND": "Nc1ccc(/C=C/c2ccc3cccnc3c2)cc1", "TGI": "> 100 µM"}
{"COMPOUND": "CS(=O)(=O)N(c1cc(-c2ccc3ncnc(Nc4ccc(F)c(Cl)c4)c3c2)cnc1Cl)S(C)(=O)=O", "TGI": "3.4 µM"}
{"COMPOUND": "C[N+](C)=c1ccc2nc3c(cc(NCCCNc4cc5oc6cc(=[N+](C)C)ccc-6nc5c5ccccc45)c4ccccc43)oc-2c1", "TGI": "37.5 µM"}
{"COMPOUND": "Cc1cc(O)c(-c2ccc([C@@H](C)CN(C)C)cc2)c2c1[nH]c(=O)c1sccc12", "TGI": "0.53 µM"}
{"COMPOUND": "COC(=O)N/N=C(\\C)CC(=O)Nc1ccc(Cl)cc1", "TGI": "> 100 µM"}
{"COMPOUND": "CCN(CC)C(=S)N/N=C(/c1ccccc1)c1ccccn1", "TGI": "8.63 µM"}
{"COMPOUND": "O=c1[nH]c(=O)n(C2CC(O)C(CO)O2)cc1C(F)(F)F (centres undefined)", "TGI": "> 100 µM"}
{"COMPOUND": "C=C1CCC2C3(C)COC(c4ccccc4Cl)OC3CCC2(C)C1/C=C/C1=CCOC1=O (centres undefined)", "TGI": "> 100 µM"}
{"COMPOUND": "NC(=O)C1CCN(Cc2c(Cl)c(Cl)c(CN3CCC(C(N)=O)CC3)c(Cl)c2Cl)CC1", "TGI": "> 100 µM"}
{"COMPOUND": "CCn1ncc2c(=O)n3ncn(-c4ccc(Br)cc4)c3nc21", "TGI": "> 100 µM"}
{"COMPOUND": "c1ccc2c(c1)cc1ccc3cccc4ccc2c1c34", "TGI": "> 100 µM"}
{"COMPOUND": "CO[P@@]1(=O)O[C@@H](c2ccccc2)[C@H](O)[C@]1(O)c1ccccc1", "TGI": "> 100 µM"}
{"COMPOUND": "O=C([C@H](O)[C@@H](O)c1cccc(Cl)c1)C12CC3CC(CC(C3)C1)C2", "TGI": "3.98 µM"}
